- measured-on: HLA-A*02:01 (Homo sapiens, UniProt P04439, D140Y/D185E/D98H/E176V/E277Q/G131W/G231S/I119V/I121R/I166T/I218V/L300P/L318F/N151K/N90K/P208A/P217A/Q86G/Q94H/R138H/R169H/T345S)
- protocol-notes: MHC binding assay (UV-ligand exchange, ELISA, peptide exchange yield)
- condition-notes: binding of HLA-class I restricted peptides to HLA-A*02:01
readout-kind: Peptide exchange (MHC class I binding score, peptide exchange yield)

These solved cases illustrate the format of a correct answer.
[
  {
    "substance": "16 (VLFQGQASL; listed as Homo sapiens) [compound 16]",
    "endpoint-value": "″+++″ (≥50% = +++)"
  },
  {
    "substance": "489 (KMWEELPEVV; listed as Homo sapiens) [compound 489]",
    "endpoint-value": "″+++″ (≥50% = +++)"
  },
  {
    "substance": "299 (YLLETSGNL; listed as Homo sapiens) [compound 299]",
    "endpoint-value": "″+++″ (≥50% = +++)"
  },
  {
    "substance": "15 (VLLTFKIFL; listed as Homo sapiens) [compound 15]",
    "endpoint-value": "″++″ (≥20% = ++)"
  },
  {
    "substance": "5 (HLTEVYPEL; listed as Homo sapiens) [compound 5]",
    "endpoint-value": "″+++″ (≥50% = +++)"
  }
]

INPUT: What value of Peptide exchange (MHC class I binding score, peptide exchange yield) has been reported for the following substance? 604 (SILDRDDIFV; listed as Homo sapiens) [compound 604]
OUTPUT: ″+++″ (≥50% = +++)

INPUT: What value of Peptide exchange (MHC class I binding score, peptide exchange yield) has been reported for the following substance? 17 (GLLPGDRLVSV; listed as Homo sapiens) [compound 17]
OUTPUT: ″+++″ (≥50% = +++)

INPUT: Entry 600 (ALAAPDIVPAL; listed as Homo sapiens) [compound 600] has what Peptide exchange (MHC class I binding score, peptide exchange yield)?
OUTPUT: ″+++″ (≥50% = +++)

INPUT: I would be grateful if you could share the reported Peptide exchange (MHC class I binding score, peptide exchange yield) for 526 (RLAEVGQYEQV; listed as Homo sapiens) [compound 526] .
OUTPUT: ″++″ (≥20% = ++)

----------
- measured-on: HLA-A*02:01 (Homo sapiens, UniProt P04439, D140Y/D185E/D98H/E176V/E277Q/G131W/G231S/I119V/I121R/I166T/I218V/L300P/L318F/N151K/N90K/P208A/P217A/Q86G/Q94H/R138H/R169H/T345S)
- protocol-notes: MHC binding assay (UV-ligand exchange, ELISA, peptide exchange yield)
- condition-notes: binding of HLA-class I restricted peptides to HLA-A*02:01
readout-kind: Peptide exchange (MHC class I binding score, peptide exchange yield)

Before answering, review these 5 worked examples.
[
  {
    "substance": "137 (TLVLTLPTV; listed as Homo sapiens) [compound 137]",
    "endpoint-value": "″++++″ (≥75% = ++++)"
  },
  {
    "substance": "390 (ALFMKQIYL; listed as Homo sapiens) [compound 390]",
    "endpoint-value": "″+++″ (≥50% = +++)"
  },
  {
    "substance": "523 (YQIPRTFTL; listed as Homo sapiens) [compound 523]",
    "endpoint-value": "″++″ (≥20% = ++)"
  },
  {
    "substance": "152 (ILFEDIFDV; listed as Homo sapiens) [compound 152]",
    "endpoint-value": "″+++″ (≥50% = +++)"
  },
  {
    "substance": "173 (LLDSASAGLYL; listed as Homo sapiens) [compound 173]",
    "endpoint-value": "″+++″ (≥50% = +++)"
  }
]

Proceed to the following item.
INPUT: Please report the recorded Peptide exchange (MHC class I binding score, peptide exchange yield) for 31 (YLAPELFVNV; listed as Homo sapiens) [compound 31] .
OUTPUT: ″++″ (≥20% = ++)

----------
- measured-on: HLA-A*02:01 (Homo sapiens, UniProt P04439, D140Y/D185E/D98H/E176V/E277Q/G131W/G231S/I119V/I121R/I166T/I218V/L300P/L318F/N151K/N90K/P208A/P217A/Q86G/Q94H/R138H/R169H/T345S)
- protocol-notes: MHC binding assay (UV-ligand exchange, ELISA, peptide exchange yield)
- condition-notes: binding of HLA-class I restricted peptides to HLA-A*02:01
readout-kind: Peptide exchange (MHC class I binding score, peptide exchange yield)

Below are worked cases with known answers.
[
  {
    "substance": "77 (ILVEADGAWVV; listed as Homo sapiens) [compound 77]",
    "endpoint-value": "″++++″ (≥75% = ++++)"
  },
  {
    "substance": "197 (ALGPEGGRV; listed as Homo sapiens) [compound 197]",
    "endpoint-value": "″++″ (≥20% = ++)"
  },
  {
    "substance": "495 (FIFSEKPVFV; listed as Homo sapiens) [compound 495]",
    "endpoint-value": "″+++″ (≥50% = +++)"
  },
  {
    "substance": "561 (YLQLTQSEL; listed as Homo sapiens) [compound 561]",
    "endpoint-value": "″+++″ (≥50% = +++)"
  }
]

INPUT: Please report the recorded Peptide exchange (MHC class I binding score, peptide exchange yield) for 305 (SIANFSEFYV; listed as Homo sapiens) [compound 305] .
OUTPUT: ″++++″ (≥75% = ++++)

INPUT: Find the recorded Peptide exchange (MHC class I binding score, peptide exchange yield) belonging to 82 (FLSSVTYNL; listed as Homo sapiens) [compound 82] and report it.
OUTPUT: ″+++″ (≥50% = +++)

INPUT: # lookup: Peptide exchange (MHC class I binding score, peptide exchange yield) of 115 (AIAGAGILYGV; listed as Homo sapiens) [compound 115]
OUTPUT: ″++″ (≥20% = ++)

INPUT: Dear colleague, I am looking for the recorded Peptide exchange (MHC class I binding score, peptide exchange yield) of the following substance: 66 (FLDENIGGVAV; listed as Homo sapiens) [compound 66]
OUTPUT: ″+++″ (≥50% = +++)

INPUT: Consider the substance 303 (AILPQLFMV; listed as Homo sapiens) [compound 303] and give its measured Peptide exchange (MHC class I binding score, peptide exchange yield).
OUTPUT: ″++++″ (≥75% = ++++)

INPUT: # get_value(readout='Peptide exchange (MHC class I binding score, peptide exchange yield)', item= 371 (FLQAHLHTA; listed as Homo sapiens) [compound 371] )
OUTPUT: ″++++″ (≥75% = ++++)

INPUT: Item 518 (KLNAEVACV; listed as Homo sapiens) [compound 518] has what recorded Peptide exchange (MHC class I binding score, peptide exchange yield)?
OUTPUT: ″+++″ (≥50% = +++)

INPUT: Field request: Peptide exchange (MHC class I binding score, peptide exchange yield) | item: 508 (ILAQEQLVVGV; listed as Homo sapiens) [compound 508]
OUTPUT: ″+++″ (≥50% = +++)

INPUT: Fill in the blank: the reported Peptide exchange (MHC class I binding score, peptide exchange yield) of 143 (LLLDITPEI; listed as Homo sapiens) [compound 143] is ____.
OUTPUT: ″++++″ (≥75% = ++++)

----------
- measured-on: HLA-A*02:01 (Homo sapiens, UniProt P04439, D140Y/D185E/D98H/E176V/E277Q/G131W/G231S/I119V/I121R/I166T/I218V/L300P/L318F/N151K/N90K/P208A/P217A/Q86G/Q94H/R138H/R169H/T345S)
- protocol-notes: MHC binding assay (UV-ligand exchange, ELISA, peptide exchange yield)
- condition-notes: binding of HLA-class I restricted peptides to HLA-A*02:01
readout-kind: Peptide exchange (MHC class I binding score, peptide exchange yield)

[
  {
    "substance": "440 (ALADGVTMQV; listed as Homo sapiens) [compound 440]",
    "endpoint-value": "″++″ (≥20% = ++)"
  },
  {
    "substance": "400 (SLLTEQDLWTV; listed as Homo sapiens) [compound 400]",
    "endpoint-value": "″++″ (≥20% = ++)"
  },
  {
    "substance": "355 (SIQQSIERLLV; listed as Homo sapiens) [compound 355]",
    "endpoint-value": "″++″ (≥20% = ++)"
  }
]

----------
- measured-on: HLA-A*02:01 (Homo sapiens, UniProt P04439, D140Y/D185E/D98H/E176V/E277Q/G131W/G231S/I119V/I121R/I166T/I218V/L300P/L318F/N151K/N90K/P208A/P217A/Q86G/Q94H/R138H/R169H/T345S)
- protocol-notes: MHC binding assay (UV-ligand exchange, ELISA, peptide exchange yield)
- condition-notes: binding of HLA-class I restricted peptides to HLA-A*02:01
readout-kind: Peptide exchange (MHC class I binding score, peptide exchange yield)

Some solved cases for reference:
[
  {
    "substance": "256 (FLPPEHTIVYI; listed as Homo sapiens) [compound 256]",
    "endpoint-value": "″+++″ (≥50% = +++)"
  },
  {
    "substance": "553 (SLLNQDLHWSL; listed as Homo sapiens) [compound 553]",
    "endpoint-value": "″++++″ (≥75% = ++++)"
  },
  {
    "substance": "618 (VLFDSESIGIYV; listed as Homo sapiens) [compound 618]",
    "endpoint-value": "″+++″ (≥50% = +++)"
  },
  {
    "substance": "320 (KMFEFVEPLL; listed as Homo sapiens) [compound 320]",
    "endpoint-value": "″++++″ (≥75% = ++++)"
  }
]

INPUT: Could you share which Peptide exchange (MHC class I binding score, peptide exchange yield) value was measured for 332 (YLISELEAA; listed as Homo sapiens) [compound 332] ?
OUTPUT: ″+++″ (≥50% = +++)
